- Test system: CAKI-1 renal
- EXPERIMENT_SUMMARY: NCI-60 one-dose screen, 48 h
- EXPERIMENTAL_PARAMETERS: 10 µM
About 83,000 compounds went through this panel and 20% of them were active in at least one assay; those are over-represented in the sample as a whole. Activity calls are given as the source filed them. How the source made its calls: active means growth percent below 10; inactive means the rest.
Classes used: active, inactive

# STRUCTURE_NOTATION, SYSTEM_UNDER_TEST, ANSWER_LABEL
data = [
    ("CCOc1ccc(Cc2nccc3cc(OCC)c(OCC)cc23)cc1OCC", "CAKI-1 renal", "inactive"),
    ("O=C(Nc1ccc(-n2ccc3c(NC(=O)c4ccccc4)ncnc32)cc1)Nc1ccc(Cl)c(C(F)(F)F)c1", "CAKI-1 renal", "active"),
    ("O=C(Nc1ccc(-n2cc(-c3ccncc3)c(-c3ccc(O)c(Cl)c3)n2)cc1)c1cc(Cl)cc(Cl)c1", "CAKI-1 renal", "inactive"),
    ("O=C(NCCNc1nccc(-c2c(-c3cccc(O)c3)nc3sccn23)n1)Nc1cc(C(F)(F)F)cc(C(F)(F)F)c1", "CAKI-1 renal", "inactive"),
    ("O=C(Nc1cccc(-n2ccc3c(NC(=O)c4ccccc4)nccc32)c1)c1cccc(C(F)(F)F)c1", "CAKI-1 renal", "active"),
    ("CN(C)CC/C=C1\\c2ccccc2Sc2ccc(Cl)cc21", "CAKI-1 renal", "inactive"),
    ("COc1ccc(-c2nn(-c3ccc(NC(=O)Nc4ccc(Cl)c(C(F)(F)F)c4)cc3)cc2-c2ccncc2)cc1Cl", "CAKI-1 renal", "active"),
    ("O=C(NCCNc1nccc(-c2c(-c3cccc(O)c3)nc3sccn23)n1)c1ccc(N2CCOCC2)c(C(F)(F)F)c1", "CAKI-1 renal", "inactive"),
    ("COc1ccc(-c2nnc(SCC(=O)N3CCN(c4cc5c(cc4F)c(=O)c(C(=O)O)cn5C4CC4)CC3)o2)cc1OC", "CAKI-1 renal", "inactive"),
    ("O=C1c2ccccc2OC=C(c2ccccc2)N1CCCCNc1ccc(F)cc1", "CAKI-1 renal", "inactive"),
    ("O=S(=O)(Nc1cccc2cc(OS(=O)(=O)c3ccccc3)ccc12)c1ccccc1", "CAKI-1 renal", "inactive"),
    ("COc1ccc(-c2nnc(NC(=O)CN3CCN(c4cc5c(cc4F)c(=O)c(C(=O)O)cn5C4CC4)CC3)s2)cc1OC", "CAKI-1 renal", "inactive"),
    ("O=C(Nc1cccc(-n2ccc3c(NC(=O)c4ccccc4)ncnc32)c1)Nc1ccc(Cl)c(C(F)(F)F)c1", "CAKI-1 renal", "inactive"),
    ("C=CC(=O)Nc1cccc(Nc2nc(Nc3ccc(OCCOC(F)F)cc3)ncc2F)c1", "CAKI-1 renal", "inactive"),
    ("O=C(Nc1ccc(-n2cc(-c3ccncc3)c(-c3ccc(O)c(Cl)c3)n2)cc1)c1ccc(Cl)c(C(F)(F)F)c1", "CAKI-1 renal", "inactive"),
    ("COc1ccc(-c2nn(-c3ccc(NC(=O)c4cc(Cl)cc(Cl)c4)cc3)cc2-c2ccncc2)cc1Cl", "CAKI-1 renal", "active"),
    ("Cc1ccc[n+](CC(=O)c2cccc3ccccc23)c1", "CAKI-1 renal", "inactive"),
    ("NC(=O)C1=C[C@H]2[C@H]3C=C[C@@]2(O)C(=O)O[C@@H]3O1", "CAKI-1 renal", "inactive"),
    ("COc1ccc(-c2nn(-c3ccc(NC(=O)Nc4ccc(Cl)c(Cl)c4)cc3)cc2-c2ccncc2)cc1Cl", "CAKI-1 renal", "active"),
]
